These entries and their values trace back to patent US20090068143A1.

# Assay method text: Actual solubility in aqueous buffers / cosolvent (HPLC, spectrophotometer)
# Format: physicochemical
# Condition info: 80 mM phosphate buffer, aqueous buffer, thermodynamic from solid, 80 mM phosphate buffer; read-out: solubility of non-lyophilized material
Outcome measure: solubility

{"columns": ["Compound", "Outcome measure", "Measured"],
 "data": [
  ["CCCCCCC(C)(C)c1cc(O)c([C@H]2CC(=O)C3CC2C3(C)C)c(OC(=O)/C=C/C(=O)O)c1 (single isomer, unassigned; (-)) [Compound 18F]", "solubility", "~10000 µg/mL"]
]}

====

# Tested system: UniProt P21554
# Sequence (P21554 whole entry): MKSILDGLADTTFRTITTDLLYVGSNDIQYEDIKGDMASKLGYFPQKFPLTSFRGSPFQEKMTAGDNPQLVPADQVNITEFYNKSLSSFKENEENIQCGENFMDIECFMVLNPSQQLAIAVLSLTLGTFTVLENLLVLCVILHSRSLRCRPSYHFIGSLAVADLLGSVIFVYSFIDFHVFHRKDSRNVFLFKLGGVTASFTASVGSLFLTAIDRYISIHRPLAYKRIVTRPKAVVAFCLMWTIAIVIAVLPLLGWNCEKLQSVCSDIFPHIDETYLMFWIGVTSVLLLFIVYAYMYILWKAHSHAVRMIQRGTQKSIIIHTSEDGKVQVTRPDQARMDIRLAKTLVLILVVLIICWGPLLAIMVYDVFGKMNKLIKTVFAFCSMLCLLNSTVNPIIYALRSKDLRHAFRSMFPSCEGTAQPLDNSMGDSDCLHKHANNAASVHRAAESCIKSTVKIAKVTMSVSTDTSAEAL
# Assay method text: CB1 binding assay
pIC50: −log10 of the molar value.
# pIC50 values compiled below

{"columns": ["Compound", "Comparative sign", "pIC50"],
 "data": [
  ["CCCCCCC(C)(C)c1cc(OC(=O)/C=C/C(=O)O)c(C2CC(=O)[C@H]3C[C@@H]2C3(C)C)c(OC(=O)/C=C/C(=O)O)c1 (single isomer, unassigned; (-)) [Compound 18G]", "=", 6.49],
  ["CCCCCCC(C)(C)c1cc(O)c([C@H]2CC(=O)[C@H]3C[C@@H]2C3(C)C)c(O)c1 [Compound 18A]", "=", 7.56],
  ["CCCCCCC(C)(C)c1cc(OP(=O)(OCC)OCC)c([C@H]2CC(=O)C3CC2C3(C)C)c(OP(=O)(OCC)OCC)c1 (single isomer, unassigned; (-)) [Compound 18D]", "<", 6.00]
]}
